As shown below, each of these molecules has a reported Potency value.
experiment: Quantitative High-Throughput drug screen in 47 multiple myeloma cell lines against the NCATS MIPE library collection: MM1R_ATCC cell viability assay (AID 1918981); settings: MM1R multiple myeloma cells, CellTiter-Glo viability, 48 h; series mostly up to 45.8 µM; note: potency is the fitted concentration of half-maximal effect; nearly all actives have a fitted effect of over 35% in size
Records with an inconclusive call do not appear. Calls of active or inactive are those of the source. Calls come from the whole dose curve; as a rule, active = well fitted cell-killing curve with a large enough effect; inconclusive = small, poorly fitted or top-dose-only effect, or effect the other way; inactive = no such curve, though single readings can be large or run the other way.
quantityName: Potency

In [3]: df
Out[3]:
                          structureassmiles  recordedmeasurement
0  COC(=O)[C@]12CCC(C)(C)C[C@@H]1[C@@H]1C(=O)C=C3[C@@]4(C)C=C(C#N)C(=O)C(C)(C)[C@@H]4CC[C@@]3(C)[C@]1(C)CC2    0.264 µM (active)
1  O=C(Nc1cc(C(F)(F)F)cc(C(F)(F)F)c1)c1cc(Cl)ccc1O     1.05 µM (active)
2  O=C(O)c1ccc2cc(-c3ccc(O)c(C45CC6CC(CC(C6)C4)C5)c3)ccc2c1    0.662 µM (active)
3  Cc1cc(Nc2cc(N3CCN(C)CC3)nc(C=Cc3ccccc3)n2)n[nH]1     13.6 µM (active)
4  Cc1cc(Nc2ncnc3ccc(-c4ccc(CNCCS(C)(=O)=O)o4)cc23)ccc1Oc1ccn2ncnc2c1     20.9 µM (active)
5  COc1cccc2nc(-c3cccs3)nc(NN3C(=O)C=C(C)C3=O)c12    0.187 µM (active)
6  CC[C@@]1(O)C(=O)OCc2c1cc1n(c2=O)Cc2cc3cc(O)ccc3nc2-1   0.0662 µM (active)
7  CC(C)c1ccc(Cn2ccc3c4c(N)nc(NC5CC5)nc4ccc32)cc1     9.35 µM (active)
8  CC(C)[C@H](C(=O)Nc1ccc(C(=O)NO)cc1)c1ccccc1    0.526 µM (active)

This collection of values is drawn from PubChem BioAssay (NCATS).
